- Tested target: T1, Dpo4 (P2 DNA polymerase IV), wild type, Cy5-labeled (Sulfolobus solfataricus P2, UniProt Q97W02 1-352)
- T1 sequence: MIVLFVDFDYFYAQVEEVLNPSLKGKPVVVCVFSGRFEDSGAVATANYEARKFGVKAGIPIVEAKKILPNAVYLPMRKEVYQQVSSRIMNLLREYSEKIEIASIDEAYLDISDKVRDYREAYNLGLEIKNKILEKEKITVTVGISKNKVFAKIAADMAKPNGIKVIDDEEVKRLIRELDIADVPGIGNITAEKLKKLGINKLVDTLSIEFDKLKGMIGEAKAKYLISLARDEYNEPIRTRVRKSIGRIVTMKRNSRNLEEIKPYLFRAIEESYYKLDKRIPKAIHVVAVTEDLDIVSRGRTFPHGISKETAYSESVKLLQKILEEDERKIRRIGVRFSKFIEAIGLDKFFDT
- Procedure summary: smFRET
Metric name: pKd
A value of pKd is the negative decimal logarithm of a concentration given in moles per litre.

What measured pKd goes with 8Cy3 primer-template (dsDNA, amino-C6-dT in template) DNA 1: GATGAAAATGAAG DNA 2: CTCATAATAGCTATCCTTCATTTTCATC ?
7.52

Data provenance: paper PMC3936744
